Target: mutEGFR (D770_N771insNPG, T790) (Homo sapiens, UniProt P00533, INS770NPG/T790M)
Construct: exact insNPG construct not described; in-house EGFR proteins were N-terminal GST fusions from baculovirus/insect cells (borders R669-A1210 given only for WT, insSVD, insASV)
Sequence (P00533 with tags, fused parts or gaps INS770NPG/T790M limits assumed): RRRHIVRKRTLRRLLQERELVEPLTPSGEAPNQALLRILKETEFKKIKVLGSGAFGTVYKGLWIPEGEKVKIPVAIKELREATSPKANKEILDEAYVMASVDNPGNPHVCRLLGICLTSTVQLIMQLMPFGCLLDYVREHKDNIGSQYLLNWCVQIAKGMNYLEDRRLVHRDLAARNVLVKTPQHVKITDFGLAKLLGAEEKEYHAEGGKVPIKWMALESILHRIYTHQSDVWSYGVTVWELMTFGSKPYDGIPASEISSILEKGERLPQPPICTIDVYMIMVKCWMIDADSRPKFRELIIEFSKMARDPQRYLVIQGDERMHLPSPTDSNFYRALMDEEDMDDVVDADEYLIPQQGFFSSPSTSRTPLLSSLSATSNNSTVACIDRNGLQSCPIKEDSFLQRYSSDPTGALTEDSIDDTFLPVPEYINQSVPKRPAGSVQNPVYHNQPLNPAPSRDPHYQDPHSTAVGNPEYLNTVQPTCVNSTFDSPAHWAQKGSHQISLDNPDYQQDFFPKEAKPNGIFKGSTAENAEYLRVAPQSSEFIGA
Test: mutEGFR (D770_N771insNPG, T790) kinase assay
Type: biochemical
Conditions: Table 2a, D770_N771insNPG
pIC50: −log10 of the molar value.
readout: pIC50

compound	number
C=CC(=O)N1CCn2nc(-c3ccc(Cl)c(C)c3)c(-c3ccncc3)c2C1 [Example 2]	9.84
CN(C)C/C=C/C(=O)N1CCn2nc(-c3cccc(Cl)c3)c(-c3ccncc3)c2C1 [Example 150]	8.98
C=CC(=O)N1CCn2nc(-c3ccc(C(F)(F)F)cc3)c(-c3ccnc4[nH]ccc34)c2C1C (single isomer, unassigned; isomer 2) [Example 247]	6.03
O=C(/C=C/CN1CCCC1)N1CCn2nc(-c3ccc(F)cc3)c(-c3ccncc3)c2C1 [Example 79]	8.60
C=CC(=O)N1CCn2nc(-c3ccccc3Cl)c(-c3ccnc4[nH]cc(C)c34)c2C1 [Example 179]	6.44
O=C(/C=C/CF)N1CCn2nc(-c3ccc(Cl)cc3F)c(-c3ccncc3)c2C1 [Example 73]	8.29
C=CC(=O)N1CCn2nc(-c3ccc(CC)cc3)c(-c3ccncc3)c2C1 [Example 140]	8.51
C=CC(=O)N1Cc2c(-c3ccncc3)c(-c3ccc(F)cc3)nn2C(CC(N)=O)C1 (stereo not drawn) [Example 224]	8.12
CN(C)C/C=C/C(=O)N1Cc2c(-c3ccncc3)c(-c3ccc(F)cc3)nn2C(C(N)=O)C1 (racemic) [Example 202]	6.65

###

Biological target: mutEGFR (D770_N771insNPG, T790) (Homo sapiens, UniProt P00533, INS770NPG/T790M)
Construct: exact insNPG construct not described; in-house EGFR proteins were N-terminal GST fusions from baculovirus/insect cells (borders R669-A1210 given only for WT, insSVD, insASV)
Assay: mutEGFR (D770_N771insNPG, T790) kinase assay
Format: biochemical
Settings: Table 2a, D770_N771insNPG
pIC50: −log10 of the molar value.
// criterion not met strictly below 8 in pIC50; criterion met otherwise

compound	class_assignment
C=CC(=O)N1CCn2nc(-c3ccc4cc[nH]c4c3)c(-c3ccncc3)c2C1 [Example 195]	criterion met
Cc1c[nH]c2nccc(-c3c(-c4ccc(F)cc4)nn4c3C(C)N(C(=O)/C=C/CN(C)C)CC4)c12 (single isomer, unassigned; isomer 1) [Example 268]	criterion not met
C=CC(=O)N1CCn2nc(-c3ccc(Cl)cc3)c(-c3ccncc3)c2C1 [Example 3]	criterion met
C=CC(=O)N1CCn2nc(-c3ccc(F)cc3)c(-c3ccnc(NC(=O)C4CC4)c3)c2C1 [Example 7]	criterion met
C=CC(=O)N1CCn2nc(-c3cccc(C#N)c3F)c(-c3ccncc3)c2C1 [Example 120]	criterion not met
C=CC(=O)N1CCn2nc(-c3ccc(F)c4ccoc34)c(-c3ccncc3)c2C1 [Example 105]	criterion met
C=CC(=O)N1CCn2nc(-c3ccccc3F)c(-c3ccncc3)c2C1 [Example 136]	criterion met
C=CC(=O)N1Cc2c(-c3ccnc4[nH]cc(C)c34)c(-c3cccc(C#N)c3)nn2C[C@H]1C [Example 284]	criterion not met
C=CC(=O)N1CCn2nc(-c3cccc(Cl)c3)c(-c3ccncc3)c2C1 [Example 133]	criterion met
C=CC(=O)N1CCn2nc(-c3ccc(Cl)cc3F)c(-c3ccnc4[nH]cc(C)c34)c2C1 [Example 49]	criterion not met
C[C@@H]1Cn2nc(-c3cccc(C#N)c3)c(-c3ccncc3)c2CN1C(=O)/C=C/CN(C)C [Example 100]	criterion met
C=CC(=O)N1Cc2c(-c3ccncc3)c(-c3ccc(Cl)cc3F)nn2CC1C (centres unmarked) [Example 227]	criterion met
C=CC(=O)N1Cc2c(-c3ccncc3)c(-c3ccc(Cl)cc3)nn2CC1(C)C [Example 211]	criterion not met
